Examples of compounds with documented IC50 follow.
target desc: CatSper (Homo sapiens, UniProt Q7RTX7+Q86XQ3+Q8NEC5+Q96P56)
Construct: Motile spermatozoa were selected by a ‘swim-up’ procedure; endogenous in cells; host or cells: motile human spermatozoa (swim-up) from healthy donors
assay overview: Inhibition of PGE1-induced Ca2+ influx in human sperm (screen 2 inhibitors)
Assay type: cell-based
test settings: PGE1-induced response; pooled from 3 independent experiments; read-out: Mean IC50 (PGE1) µM (±SD)

{"compound": "CC(=O)O[C@]1(C(C)=O)CC[C@H]2[C@@H]3C=C(C)C4=CC(=O)CC[C@@H]4[C@H]3CC[C@@]21C [nomegestrol acetate]", "IC50": "52 µM"}
{"compound": "CCCC1O[C@@H]2C[C@H]3[C@@H]4CCC5=CC(=O)C=C[C@]5(C)[C@H]4[C@@H](O)C[C@]3(C)[C@]2(C(=O)CO)O1 (stereo partly drawn) [budesonide]", "IC50": "> 100 µM"}
{"compound": "C#C[C@]1(O)CC[C@H]2[C@@H]3CCc4cc(O)ccc4[C@H]3CC[C@@]21C", "IC50": "6.68 µM"}

----------
target desc: CatSper (Homo sapiens, UniProt Q7RTX7+Q86XQ3+Q8NEC5+Q96P56)
Construct: Motile spermatozoa were selected by a ‘swim-up’ procedure; endogenous in cells; host or cells: motile human spermatozoa (swim-up) from healthy donors
assay overview: Inhibition of P4-induced Ca2+ influx in human sperm (screen 2 inhibitors)
Assay type: cell-based
Examples of compounds with documented Max P4 inhibition (%) (± SD) follow.
value kind: Max P4 inhibition (%) (± SD)

{"chemical smiles": "C#C[C@]1(O)CC[C@H]2[C@@H]3CCC4=CC(=O)CC[C@@H]4[C@H]3CC[C@@]21C", "target desc": "CatSper (Homo sapiens, UniProt Q7RTX7+Q86XQ3+Q8NEC5+Q96P56)", "value kind": "Max P4 inhibition (%) (± SD)", "value": "22 (±5) %"}
{"chemical smiles": "CC#C[C@]1(O)CC[C@H]2[C@@H]3CCC4=CC(=O)CCC4=C3[C@@H](c3ccc(N(C)C)cc3)C[C@@]21C", "target desc": "CatSper (Homo sapiens, UniProt Q7RTX7+Q86XQ3+Q8NEC5+Q96P56)", "value kind": "Max P4 inhibition (%) (± SD)", "value": "25 (±25) %"}
{"chemical smiles": "C[C@]12CC[C@H]3C(=CCc4cc(O)ccc43)[C@@H]1CCC2=O", "target desc": "CatSper (Homo sapiens, UniProt Q7RTX7+Q86XQ3+Q8NEC5+Q96P56)", "value kind": "Max P4 inhibition (%) (± SD)", "value": "50 (±11) %"}
{"chemical smiles": "C=C1C[C@@H]2[C@H](CC[C@]3(C)C(=O)CC[C@@H]23)[C@@]2(C)C=CC(=O)C=C12", "target desc": "CatSper (Homo sapiens, UniProt Q7RTX7+Q86XQ3+Q8NEC5+Q96P56)", "value kind": "Max P4 inhibition (%) (± SD)", "value": "56 (±2) %"}
{"chemical smiles": "C[C@H](CCC(=O)O)[C@H]1CC[C@H]2[C@@H]3CC[C@@H]4C[C@H](O)CC[C@]4(C)[C@H]3CC[C@]12C", "target desc": "CatSper (Homo sapiens, UniProt Q7RTX7+Q86XQ3+Q8NEC5+Q96P56)", "value kind": "Max P4 inhibition (%) (± SD)", "value": "32 (±10) %"}

----------
target desc: CatSper (Homo sapiens, UniProt Q7RTX7+Q86XQ3+Q8NEC5+Q96P56)
Construct: Motile spermatozoa were selected by a ‘swim-up’ procedure; endogenous in cells; host or cells: motile human spermatozoa (swim-up) from healthy donors
assay overview: Inhibition of P4-induced Ca2+ influx in human sperm (screen 2 inhibitors)
Assay type: cell-based
test settings: IC50, reduction of P4 response

{"chemical smiles": "C[C@]12CC[C@H]3[C@@H](CCC4=CC(=O)CC[C@@]43C)[C@@H]1CC[C@@H]2C(=O)CO", "IC50 [nM]": 500}

----------
Examples of compounds with documented IC50 follow.
target desc: CatSper (Homo sapiens, UniProt Q7RTX7+Q86XQ3+Q8NEC5+Q96P56)
Construct: Motile spermatozoa were selected by a ‘swim-up’ procedure; endogenous in cells; host or cells: motile human spermatozoa (swim-up) from healthy donors
assay overview: Inhibition of PGE1-induced Ca2+ influx in human sperm (screen 2 inhibitors)
Format: cell-based
test settings: PGE1-induced response; pooled from 3 independent experiments; read-out: Mean IC50 (PGE1) µM (±SD)
value kind: IC50 (µM)

{"compound": "C#C[C@]1(O)CC[C@H]2[C@@H]3CCC4=CCCC[C@@H]4[C@H]3CC[C@@]21C [lynestrenol]", "value operator": "=", "value": 11.7}
{"compound": "C[C@H](CCC(=O)O)[C@H]1CC[C@H]2[C@@H]3[C@@H](O)C[C@@H]4C[C@H](O)CC[C@]4(C)[C@H]3CC[C@]12C [urosiol]", "value operator": "=", "value": 12.2}
{"compound": "C#C[C@]1(OC(C)=O)CC[C@H]2[C@@H]3CCC4=C[C@@H](OC(C)=O)CC[C@@H]4[C@H]3CC[C@@]21C [ethynodiol diacetate]", "value operator": "=", "value": 12.2}
{"compound": "C[C@]12CCC(=O)C=C1C=C[C@@H]1[C@@H]2CC[C@@]2(C)[C@H]1CC[C@@]2(O)CCC(=O)[O-].[K+] [canrenoic acid potassium salt]", "value operator": "=", "value": 16.3}
{"compound": "CC(=O)O[C@]1(C(C)=O)CC[C@H]2[C@@H]3C=C(Cl)C4=CC(=O)CC[C@]4(C)[C@H]3CC[C@@]21C [chlormadinone acetate]", "value operator": "=", "value": 38.4}
{"compound": "C[C@]12CC[C@@H]3c4ccc(OS(=O)(=O)O)cc4CC[C@H]3[C@@H]1CCC2=O [Estropipate]", "value operator": "=", "value": 0.282}
{"compound": "CC(C)(C)NC(=O)[C@H]1CC[C@H]2[C@@H]3CC[C@H]4NC(=O)C=C[C@]4(C)[C@H]3CC[C@]12C [finasteride]", "value operator": ">", "value": 100}

----------
Examples of molecules with documented Max P4 inhibition (%) (± SD) follow.
target desc: CatSper (Homo sapiens, UniProt Q7RTX7+Q86XQ3+Q8NEC5+Q96P56)
Construct: Motile spermatozoa were selected by a ‘swim-up’ procedure; endogenous in cells; host or cells: motile human spermatozoa (swim-up) from healthy donors
assay overview: Inhibition of P4-induced Ca2+ influx in human sperm (screen 2 inhibitors)
Assay type: cell-based
test settings: 3 independent experiments
value kind: Max P4 inhibition (%) (± SD)

{"molecule": "CCCC1O[C@@H]2C[C@H]3[C@@H]4CCC5=CC(=O)C=C[C@]5(C)[C@H]4[C@@H](O)C[C@]3(C)[C@]2(C(=O)CO)O1 (stereo partly drawn) [budesonide]", "target desc": "CatSper (Homo sapiens, UniProt Q7RTX7+Q86XQ3+Q8NEC5+Q96P56)", "value": "3 (±8) %"}
{"molecule": "C[C@]12CCC(=O)C=C1C=C[C@@H]1[C@@H]2CC[C@@]2(C)[C@H]1CC[C@@]21CCC(=O)O1", "target desc": "CatSper (Homo sapiens, UniProt Q7RTX7+Q86XQ3+Q8NEC5+Q96P56)", "value": "49 (±1) %"}
{"molecule": "C[C@]12CC[C@@H]3c4ccc(O)cc4C[C@@H](CCCCCCCCC[S+]([O-])CCCC(F)(F)C(F)(F)F)[C@H]3[C@@H]1CC[C@@H]2O (stereo partly drawn)", "target desc": "CatSper (Homo sapiens, UniProt Q7RTX7+Q86XQ3+Q8NEC5+Q96P56)", "value": "22 (±6) %"}

----------
target desc: CatSper (Homo sapiens, UniProt Q7RTX7+Q86XQ3+Q8NEC5+Q96P56)
Construct: Motile spermatozoa were selected by a ‘swim-up’ procedure; endogenous in cells; host or cells: motile human spermatozoa (swim-up) from healthy donors
assay overview: Steroid-induced increase in [Ca2+]i in human sperm (Fluo-4 HTS assay, screen 1 activators)
Assay type: cell-based
test settings: increase in [Ca2+]i; dose-response 90 µM to 0.3 nM; read-out: EC50 (±SD)
Examples of molecules with documented EC50 follow.
value kind: EC50 (nM)

{"molecule": "CC(=O)[C@H]1CC[C@H]2[C@@H]3C[C@H](C)C4=CC(=O)CC[C@]4(C)[C@H]3[C@@H](O)C[C@]12C", "unit string": "nM", "value": 240}
{"molecule": "C[C@]12CC[C@@H]3c4ccc(OS(=O)(=O)O)cc4CC[C@H]3[C@@H]1CCC2=O [Estropipate]", "unit string": "nM", "value": 161}
{"molecule": "CC(=O)[C@H]1CC[C@H]2[C@@H]3CCC4=CC(=O)CC[C@]4(C)[C@H]3CC[C@]12C", "unit string": "nM", "value": 3}

Numbers sourced from paper PMC10397409.
